Entry source: ChEMBL document CHEMBL3992525

# Test system: HGC-27
# procedure-summary: Cytotoxicity against human HGC27 cells assessed as cell growth inhibition after 48 hrs by MTT assay
# Type: functional, cell-based
# measurement-setup: HGC-27, 48 h
observable: IC50

query: IC50 for COc1cc2c3c(c4cc(OC)c(OC)cc4c2cc1OC)C(c1ccc(C#N)cc1)C1=C(COC1=O)N3 (stereo not drawn) ?
result: > 50 µM

query: IC50 for COc1cc2c3c(c4cc(OC)c(OC)cc4c2cc1OC)C(c1ccc(Br)cc1)C1=C(COC1=O)N3 (stereo not drawn) ?
result: > 50 µM

query: IC50 for COc1cc2c3c(c4cc(OC)c(OC)cc4c2cc1OC)C(c1cccc(O)c1)C1=C(COC1=O)N3 (stereo not drawn) ?
result: > 50 µM
